Values from patent US10851108B2

# EXPERIMENTAL SYSTEM: hERG (Homo sapiens (Human), UniProt Q12809)
# Sequence (Q12809 whole entry): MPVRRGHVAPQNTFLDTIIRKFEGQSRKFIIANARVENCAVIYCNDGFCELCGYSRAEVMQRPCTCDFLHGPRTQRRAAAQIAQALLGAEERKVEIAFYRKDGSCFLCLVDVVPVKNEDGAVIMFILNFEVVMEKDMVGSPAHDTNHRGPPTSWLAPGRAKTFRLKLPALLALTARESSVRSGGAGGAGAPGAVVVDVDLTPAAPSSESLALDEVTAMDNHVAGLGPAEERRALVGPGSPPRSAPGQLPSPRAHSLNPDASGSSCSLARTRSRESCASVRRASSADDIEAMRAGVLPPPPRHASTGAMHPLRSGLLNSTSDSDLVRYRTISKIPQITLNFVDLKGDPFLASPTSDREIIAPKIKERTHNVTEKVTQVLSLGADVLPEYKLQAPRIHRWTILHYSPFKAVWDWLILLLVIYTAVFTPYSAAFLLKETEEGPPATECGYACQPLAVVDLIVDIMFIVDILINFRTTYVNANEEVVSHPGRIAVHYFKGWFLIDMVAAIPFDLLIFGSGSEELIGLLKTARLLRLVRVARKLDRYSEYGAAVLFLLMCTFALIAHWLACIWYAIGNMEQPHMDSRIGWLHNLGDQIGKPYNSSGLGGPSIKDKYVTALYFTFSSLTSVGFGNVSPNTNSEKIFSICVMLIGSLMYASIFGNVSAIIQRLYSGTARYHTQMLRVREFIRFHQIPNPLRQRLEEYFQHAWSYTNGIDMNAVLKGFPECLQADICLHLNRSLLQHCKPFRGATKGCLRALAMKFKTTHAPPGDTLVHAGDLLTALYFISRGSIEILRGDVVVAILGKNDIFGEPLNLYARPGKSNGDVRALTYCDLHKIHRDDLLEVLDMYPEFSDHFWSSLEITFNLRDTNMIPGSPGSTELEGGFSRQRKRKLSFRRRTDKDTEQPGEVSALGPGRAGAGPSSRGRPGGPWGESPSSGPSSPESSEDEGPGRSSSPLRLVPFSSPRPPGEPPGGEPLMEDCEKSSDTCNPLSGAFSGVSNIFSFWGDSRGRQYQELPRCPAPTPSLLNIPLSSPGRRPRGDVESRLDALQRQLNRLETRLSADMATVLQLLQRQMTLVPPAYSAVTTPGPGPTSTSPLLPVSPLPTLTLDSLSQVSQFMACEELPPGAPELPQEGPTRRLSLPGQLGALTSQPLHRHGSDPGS
# ASSAY EXPLANATION: hERG Manual Patch Clamp Assay
# Type: cell-based
# CONDITION INFO: human, HEK 293 cells stably expressing hERG channels, pH 7.4, 1 μM, read-out: hERG EP IC50 (% Inhibition at 1 μM)
QUANTITY: inhibition at 1 µM
Write the figure, then the unit, nothing else.

Recorded inhibition at 1 µM, per entry:
>  <COMPOUND>
Cc1c(C(O)CN2CCc3nc(-n4ccc5c(C#N)cccc54)ncc3C2)ccc2c1COC2=O (single isomer, unassigned)

>  <EXPERIMENTAL SYSTEM>
hERG (Homo sapiens (Human), UniProt Q12809)

>  <RESULT>
78%

$$$$
>  <COMPOUND>
Cc1c(C(O)CN2CCc3nc(-n4ccc5c(C#N)cncc54)ncc3C2)ccc2c1COC2=O (single isomer, unassigned)

>  <EXPERIMENTAL SYSTEM>
hERG (Homo sapiens (Human), UniProt Q12809)

>  <RESULT>
41%

$$$$
>  <COMPOUND>
Cc1c(C(O)CN2CCc3nc(-n4cc(C#N)c5ncccc54)ncc3C2)ccc2c1COC2=O (single isomer, unassigned)

>  <EXPERIMENTAL SYSTEM>
hERG (Homo sapiens (Human), UniProt Q12809)

>  <RESULT>
22%

$$$$
>  <COMPOUND>
Cc1c(C(O)CN2CCc3nc(-n4ncc5c(C#N)cncc54)ncc3C2)ccc2c1COC2=O (single isomer, unassigned)

>  <EXPERIMENTAL SYSTEM>
hERG (Homo sapiens (Human), UniProt Q12809)

>  <RESULT>
16%

$$$$
>  <COMPOUND>
N#Cc1ccc(Nc2ccc3c(c2)CCN(Cc2ccc4c(c2)COC4=O)C3)cc1F

>  <EXPERIMENTAL SYSTEM>
hERG (Homo sapiens (Human), UniProt Q12809)

>  <RESULT>
94%

$$$$

Here is the next item to consider.
Q: # return inhibition at 1 µM of Cc1c(C(O)CN2CCc3nc(-n4cc(C#N)c5ccccc54)ncc3C2)ccc2c1COC2=O (single isomer, unassigned) (system: hERG (Homo sapiens (Human), UniProt Q12809))
Result: 98%
